- System: Philasterides dicentrarchi
- assay-summary: microbe, parasite or virus in culture
- assay-setup: Philasterides dicentrarchi, 24 h, read-out: Growth Inhibition 24 h (%), 100 μM, 24 h, culture medium, mean ± SD of three replicates
- Procedure: […] The anticiliate activity was assayed as previously described, with minor modifications. […] The effects of the compounds on the motility and morphology of the ciliates were monitored periodically (at 30 min, 1, 2, 3, 24, and 48 h) under an inverted optical microscope. […] The results obtained are expressed as percentage mortality for each experimental group. […] The values were then calculated from the equation log GI50 = (50 − b)/m, where m is the slope y1 − y2/x1 − x2, and b is the intercept of the line.

compound	inhibition at 100 µM (%)
C=CCSCC=C [Diallyl sulfide]	38.8
C[C@H]1CC[C@]2(NC1)O[C@H]1C[C@H]3[C@@H]4CC[C@H]5C[C@@H](O[C@@H]6O[C@H](CO)[C@H](O[C@@H]7O[C@H](CO)[C@@H](O)[C@H](O[C@@H]8OC[C@@H](O)[C@H](O)[C@H]8O)[C@H]7O[C@@H]7O[C@H](CO)[C@@H](O)[C@H](O)[C@H]7O)[C@H](O)[C@H]6O)CC[C@]5(C)[C@H]4CC[C@]3(C)[C@H]1[C@@H]2C	100
CC(=O)c1c(O)c(C)c(O)c2c1OC1=CC(=O)C(C(C)=O)C(=O)C12C (centres unmarked)	68.3
OCCc1ccccc1	30.1
CC1=CC(=O)c2c(O)cccc2C1=O	100

Just for reference, paper PMC8880129 is where these values come from.
